Where these numbers come from: patent US20250270315A1

- system-name: T1, human SIRPγ stably expressed on 293F cells (human, UniProt Q9P1W8 29-387)
- T1 construct: whole, on cells
- T1 sequence (Q9P1W8 29-387): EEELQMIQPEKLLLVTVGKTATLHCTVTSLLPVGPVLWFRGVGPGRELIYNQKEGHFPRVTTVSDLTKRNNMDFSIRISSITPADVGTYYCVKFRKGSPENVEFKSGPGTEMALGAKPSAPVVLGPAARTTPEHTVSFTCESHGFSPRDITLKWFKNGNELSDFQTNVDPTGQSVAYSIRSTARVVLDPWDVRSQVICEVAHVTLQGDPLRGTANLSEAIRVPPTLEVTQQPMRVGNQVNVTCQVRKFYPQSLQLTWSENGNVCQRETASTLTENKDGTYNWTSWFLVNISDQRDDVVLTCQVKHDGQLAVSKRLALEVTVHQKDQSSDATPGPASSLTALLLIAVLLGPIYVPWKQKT
- experiment-description: FACS, 293F-human SIRPγ cells
Can you tell me TOP MFI for the items I'm about to list?
One number for each entry, in MFI.

Please review the entries below; each comes with its answer.
015c (antibody, V domains shown, also called chimeric antibody 015c) VH: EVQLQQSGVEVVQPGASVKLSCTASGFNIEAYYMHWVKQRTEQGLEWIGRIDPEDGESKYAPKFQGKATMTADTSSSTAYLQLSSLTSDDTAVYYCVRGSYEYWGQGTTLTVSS VL: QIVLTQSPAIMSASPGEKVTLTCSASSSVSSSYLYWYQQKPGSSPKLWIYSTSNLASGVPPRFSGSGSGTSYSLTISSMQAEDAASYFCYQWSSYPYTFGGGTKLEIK; 3300
025c (antibody, V domains shown, also called chimeric antibody 025c; parental antibody of 025c) VH: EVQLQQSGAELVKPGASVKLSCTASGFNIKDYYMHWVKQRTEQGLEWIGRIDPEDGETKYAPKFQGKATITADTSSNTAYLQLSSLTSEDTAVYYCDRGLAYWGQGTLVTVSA VL: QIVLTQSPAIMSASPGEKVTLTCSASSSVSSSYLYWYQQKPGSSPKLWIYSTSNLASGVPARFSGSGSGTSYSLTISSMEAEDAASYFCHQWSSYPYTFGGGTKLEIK; 3220
059c (antibody, V domains shown, also called chimeric antibody 059c) VH: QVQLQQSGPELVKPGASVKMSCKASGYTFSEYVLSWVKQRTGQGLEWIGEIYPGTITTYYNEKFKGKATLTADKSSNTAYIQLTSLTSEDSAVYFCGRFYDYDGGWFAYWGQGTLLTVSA VL: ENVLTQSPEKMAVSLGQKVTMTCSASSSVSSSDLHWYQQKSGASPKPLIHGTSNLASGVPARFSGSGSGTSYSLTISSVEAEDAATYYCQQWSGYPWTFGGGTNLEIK; 2860
073c (antibody, V domains shown, also called chimeric antibody 073c) VH: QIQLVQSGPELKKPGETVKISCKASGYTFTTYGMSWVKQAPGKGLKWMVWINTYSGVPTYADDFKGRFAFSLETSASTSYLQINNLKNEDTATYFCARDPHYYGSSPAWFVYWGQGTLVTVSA VL: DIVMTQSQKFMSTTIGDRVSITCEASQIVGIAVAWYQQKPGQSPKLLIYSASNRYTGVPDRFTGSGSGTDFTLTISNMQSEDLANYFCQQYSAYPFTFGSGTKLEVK; 728

Proceeding to the next binder to report its TOP MFI.
-- ask Consider the binder hu1H9G4 (antibody, V domains shown) VH: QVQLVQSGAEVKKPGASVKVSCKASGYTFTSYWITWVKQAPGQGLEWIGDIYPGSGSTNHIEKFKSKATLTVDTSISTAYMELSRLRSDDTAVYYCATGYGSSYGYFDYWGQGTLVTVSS VL: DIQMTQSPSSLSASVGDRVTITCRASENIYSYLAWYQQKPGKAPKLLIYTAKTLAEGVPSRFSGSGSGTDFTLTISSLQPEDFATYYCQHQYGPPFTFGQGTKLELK and give its recorded TOP MFI.
-- reply 2720
